TGT: Protein ENL (Homo sapiens)
Sequence (Q03111 whole entry): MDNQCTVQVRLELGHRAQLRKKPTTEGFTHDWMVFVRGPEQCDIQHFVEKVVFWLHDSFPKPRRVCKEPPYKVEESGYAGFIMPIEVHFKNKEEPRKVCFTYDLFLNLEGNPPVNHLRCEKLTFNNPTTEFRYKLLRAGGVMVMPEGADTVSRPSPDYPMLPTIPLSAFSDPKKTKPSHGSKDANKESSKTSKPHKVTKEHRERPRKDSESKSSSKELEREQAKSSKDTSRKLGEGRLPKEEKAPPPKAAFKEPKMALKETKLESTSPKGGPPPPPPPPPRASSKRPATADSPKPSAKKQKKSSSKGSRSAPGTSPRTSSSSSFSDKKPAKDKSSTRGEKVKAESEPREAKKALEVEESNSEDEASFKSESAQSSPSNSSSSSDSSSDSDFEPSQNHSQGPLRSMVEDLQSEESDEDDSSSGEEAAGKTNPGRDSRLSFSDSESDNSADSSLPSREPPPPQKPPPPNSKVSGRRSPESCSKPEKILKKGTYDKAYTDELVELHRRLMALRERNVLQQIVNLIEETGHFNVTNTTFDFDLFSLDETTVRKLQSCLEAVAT
PROCEDURE_TEXT: Binding affinity to ENL YEATS domain (unknown origin) assessed as dissociation constant by ITC assay
QUANTITY: Kd

1) C[C@@H]1NC(=O)[C@H]([C@H](C)O)NC(=O)[C@@H](NC(=O)OCc2ccccc2)CCCCNC(=N)NCCC[C@H](C(=O)N[C@@H](CCCCNC(=O)c2cnco2)C(N)=O)NC1=O :: 14.1 µM
